For each entry below, report its pKd value.
# tested.on: SARS-CoV-2 RBD (RBD-2) (SARS-CoV-2)
# test: SPR, Fc-captured IgG
# pKd = -log10(concentration in molar units)

# pKd (binder: L12.bP10G07 (antibody, V domains shown, human IgG1) VH: EVQLVQSGAEVKKPGASVKVSCKASGYIYSGYYMHWVRQAPGQGLEWMGWISPDSGGTNYAQRFQGRVTMTRDTSTTTAYMELSRLRSDDTAMYYCARGPRYSGTYFDYWGQGTLVTVSS VL: QTVVTQPASVSGSPGQSITISCTGTSSDVGGYNYVSWYQQHPDKAPKLIIYDVSNRPSGVSNRFSGSKSGNTASLTISGLQAEDEAAYYCSSYTSSSTQVFGGGTKLTVL ) is 6.66

# pKd of L12.cP09C07 (antibody, V domains shown, human IgG1) VH: QVQLVQSGAEVKKPGASVKVSCKASGYIYSGYFMHWVRQAPGQGLEWMGWISPDSGGANYAQTFQGRVTMTRDTSTTTAHMELSRLRSDDTAVYYCARGPRYSGTHFDYWGQGTLVTVSS VL: QSALTQPASVSGSPGQSLTISCTGTSSDVGGYNYVSWYQQHPDKAPKLMIYDVNNRPSGVSNRFSGSKSGSTASLTISGLQAEDEADYYCSSYAGSSTQVFGGGTKLIVL = 7.06
